Biological target: MERTK (UniProt Q12866)
Sequence (Q12866 whole entry, looked up): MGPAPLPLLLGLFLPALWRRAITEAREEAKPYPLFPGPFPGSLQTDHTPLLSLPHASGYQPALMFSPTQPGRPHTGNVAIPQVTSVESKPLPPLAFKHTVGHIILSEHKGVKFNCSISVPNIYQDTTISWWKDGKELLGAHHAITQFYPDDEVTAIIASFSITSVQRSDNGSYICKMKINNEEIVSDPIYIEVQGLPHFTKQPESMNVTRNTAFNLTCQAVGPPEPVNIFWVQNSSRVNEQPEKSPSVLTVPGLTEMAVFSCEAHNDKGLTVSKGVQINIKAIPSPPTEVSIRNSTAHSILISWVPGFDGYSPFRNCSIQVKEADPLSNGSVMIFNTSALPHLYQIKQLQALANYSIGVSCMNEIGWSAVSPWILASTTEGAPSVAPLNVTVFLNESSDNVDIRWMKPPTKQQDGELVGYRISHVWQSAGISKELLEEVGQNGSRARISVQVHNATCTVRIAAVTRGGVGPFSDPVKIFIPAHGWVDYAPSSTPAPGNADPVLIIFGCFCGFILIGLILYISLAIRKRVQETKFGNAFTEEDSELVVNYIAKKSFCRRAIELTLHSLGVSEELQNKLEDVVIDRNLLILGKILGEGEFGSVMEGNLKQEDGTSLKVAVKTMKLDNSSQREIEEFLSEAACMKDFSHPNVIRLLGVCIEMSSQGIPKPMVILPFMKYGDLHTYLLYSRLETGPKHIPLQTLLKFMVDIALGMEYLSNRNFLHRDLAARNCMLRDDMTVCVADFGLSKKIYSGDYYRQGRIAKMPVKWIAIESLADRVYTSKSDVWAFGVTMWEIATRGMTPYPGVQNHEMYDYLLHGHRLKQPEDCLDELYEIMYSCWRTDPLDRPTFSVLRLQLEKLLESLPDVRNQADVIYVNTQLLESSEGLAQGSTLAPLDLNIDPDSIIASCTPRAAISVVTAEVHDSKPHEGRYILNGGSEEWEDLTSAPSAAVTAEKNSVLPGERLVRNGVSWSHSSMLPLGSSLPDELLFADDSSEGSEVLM
Experiment: phosphorylation enrichment, bacterial display (enrichment ratio); higher = better substrate or ligand; peptides without Tyr show the background;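 further: 11-residue human phosphosite peptides and single-mutation variants displayed on the E. coli surface, counted by deep sequencing, each peptide's frequency after selection divided by its frequency in the unselected input library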;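 further: frequency after pTyr selection over input frequency; kinase dosed for 20-30% of maximal phosphorylation in three min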
What phosphorylation enrichment was measured for each of the following?
Answer as a number with no unit attached.

# get_value(readout= phosphorylation enrichment, system= MERTK (UniProt Q12866)) for CGASGYSATST [CERT1_Y143_S138C]
0.523

# get_value(readout= phosphorylation enrichment, system= MERTK (UniProt Q12866)) for DQVEQYKKELE [LMNA_Y259]
0.527

# get_value(readout= phosphorylation enrichment, system= MERTK (UniProt Q12866)) for LGSNTYPFLLT [SAG_Y120]
0.589

# get_value(readout= phosphorylation enrichment, system= MERTK (UniProt Q12866)) for DRPSEYAARQL [ANXA13_Y90]
0.437

# get_value(readout= phosphorylation enrichment, system= MERTK (UniProt Q12866)) for SGEKPYKCSVC [ZNF543_Y283_E287V]
0.416

# get_value(readout= phosphorylation enrichment, system= MERTK (UniProt Q12866)) for LEQRPYRRGSE [KCNJ12_Y427_E430G]
0.442

# get_value(readout= phosphorylation enrichment, system= MERTK (UniProt Q12866)) for AKLVQYFMEHH [PTPN11_Y80_E76K_YF]
0.362

# get_value(readout= phosphorylation enrichment, system= MERTK (UniProt Q12866)) for ADMETYLLEKS [MYH7_Y266_I263M]
0.447

# get_value(readout= phosphorylation enrichment, system= MERTK (UniProt Q12866)) for PTKNDYWAMLA [WWOX_Y287]
0.443

# get_value(readout= phosphorylation enrichment, system= MERTK (UniProt Q12866)) for SLFQFYFQQKG [CHKB_Y381_R377L]
0.403

# get_value(readout= phosphorylation enrichment, system= MERTK (UniProt Q12866)) for IRRIAYEFVEM [ADA_Y84_K80R]
0.469

# get_value(readout= phosphorylation enrichment, system= MERTK (UniProt Q12866)) for MHDSNCVSKGS [PDGFRA_Y849_Y849C]
0.384

# get_value(readout= phosphorylation enrichment, system= MERTK (UniProt Q12866)) for PFQGAYLKINK [MYO1B_Y967_E969K]
0.461

# get_value(readout= phosphorylation enrichment, system= MERTK (UniProt Q12866)) for NLAAQYTTVGR [SGSH_Y240_D235N]
0.438

# get_value(readout= phosphorylation enrichment, system= MERTK (UniProt Q12866)) for YRKNTYNVKST [SYNE2_Y575_I574T]
0.316

# get_value(readout= phosphorylation enrichment, system= MERTK (UniProt Q12866)) for MGSYNYLGFPR [SPTLC2_Y178_A182P]
6.35

# get_value(readout= phosphorylation enrichment, system= MERTK (UniProt Q12866)) for LGRKLYSIAAP [ABHD12_Y345]
1.04

# get_value(readout= phosphorylation enrichment, system= MERTK (UniProt Q12866)) for IHFAIYLLKFS [ARMC9_Y107_YF]
0.414

# get_value(readout= phosphorylation enrichment, system= MERTK (UniProt Q12866)) for KDQPDYKFQPR [SOX9_Y172_H169Q_YF]
0.46

# get_value(readout= phosphorylation enrichment, system= MERTK (UniProt Q12866)) for GVTLLYFGRDN [ADGRD1_Y85_Y89D_YF]
0.321

# get_value(readout= phosphorylation enrichment, system= MERTK (UniProt Q12866)) for SDLTDYLMKIL [ACTA1_Y190_R185S]
0.445

# get_value(readout= phosphorylation enrichment, system= MERTK (UniProt Q12866)) for VQVAFYTVMMN [SPATA17_Y84_M86V_YF]
1.84

# get_value(readout= phosphorylation enrichment, system= MERTK (UniProt Q12866)) for LNPDGYKKAFE [CPXM2_Y427_E428K_YF]
0.727

# get_value(readout= phosphorylation enrichment, system= MERTK (UniProt Q12866)) for GYYDLYGGEKF [PTPN11_Y66_D61G]
6.61

# get_value(readout= phosphorylation enrichment, system= MERTK (UniProt Q12866)) for NKFVAYIESQG [KDM4B_Y34_YF]
0.459

# get_value(readout= phosphorylation enrichment, system= MERTK (UniProt Q12866)) for FAELVYTGFWH [ASS1_Y322]
6.23

# get_value(readout= phosphorylation enrichment, system= MERTK (UniProt Q12866)) for SRNSKYNAEST [PSEN1_Y315_K311R]
0.464

# get_value(readout= phosphorylation enrichment, system= MERTK (UniProt Q12866)) for KDFNKYVAFIE [KDM4B_Y31_YF]
0.424

# get_value(readout= phosphorylation enrichment, system= MERTK (UniProt Q12866)) for KSELAYEIFDK [MYOM2_Y1024]
4.45
